This collection of values is drawn from the supplement of paper PMC12042874.

Quick list: amyloid nucleation score per entry.
Experiment: amyloid nucleation score (Sup35N fusion, yeast selection) (log enrichment); library NNK1; higher = more nucleation; inactive = no reads after selection;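 further: zero at mode of non-aggregating sequences after 7 days selection at 30°C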

{"columns": ["substance", "amyloid nucleation score"],
 "data": [
  ["GHKNTRILQV", -0.444],
  ["ASVVQVTGRGSVGMVFPCCS", -0.558],
  ["WSTQSLCFGPT", 0.012],
  ["IPMLFMSLRV", 0.171],
  ["RNVLWMILMYRCRSGGLCNG", 0.737],
  ["WWVYRARFNCCHLYKVYLHC", 0.221],
  ["TGVCTGECWYRGLVQSCSGA", -0.239],
  ["NFSYMLLLAPSKVTRAGCFV", -0.134],
  ["ITLIGQHRFLLVFSTNQLNH", 0.46],
  ["FIPQFYSVAMKLGCVRFVVL", 0.577],
  ["NFLPVLVCQPLSWLLIPLLY", 0.309],
  ["DDYTGSEVNIITIV", -1.43],
  ["EFTVPRWTPTGHTSGSLEWV", 0.22],
  ["WWGRGVLVWYGCRAKVWTS", 0.012],
  ["QHYMQVIDLGSWWSSWVYFI", -0.005],
  ["FSGVMLVEWLTSPRHLRRAL", 0.678],
  ["VSDRRTGVLRIHCNFKVGLS", 1.89],
  ["VLYFYFFIQIRVGIQYSVKN", 2.41],
  ["NGMVTLYR", 0.977],
  ["SGNKGRLSLLYYILFMPWLA", -0.412],
  ["IDFYVCDMC", 7.86],
  ["VLMITGVCCSHNMLVLADKR", 6.61],
  ["SGLFPVLGEHGNHRVSGSI", -1.4],
  ["QSICFYSLKQCIRAKHR", 0.774],
  ["NFNRRRLCIIMKFDDPPLHG", 0.102],
  ["LIYYNLIGHRVSWGEVGYFV", 0.014],
  ["MALLRLDIITFRNESCSEPN", -0.046],
  ["LINSFLVLWKPFIFAEGRTR", 7.9],
  ["YLSYDT", -0.411],
  ["YGINMWRYLGNQEEATIVFL", 0.244],
  ["AMKVFYDMWKTACY", -0.507],
  ["DGRRTDWVLCNGARIRTCYD", -0.316],
  ["PTGNGKLFSGKYYPYDVRRS", -0.169],
  ["DVFHTLIRSRLDFFFYKRER", 0.14],
  ["ACMRCFGNICSLWSVKGN", 7.42],
  ["RLTFKYIKFAMS", 0.206],
  ["VYVDVSFPPPVFEWCGPQIT", 0.392],
  ["KSLSRFRVTNSKEYMSAMGT", -0.299],
  ["LLRLFALLTLNNLV", -0.296],
  ["WRLTSS", -0.809],
  ["ADVEVC", -0.005],
  ["RSGMFMGDWYSAAWKGKTSS", 0.137],
  ["TSQENTDINGPCKLTSVLQR", 0.436],
  ["IVGIVT", 1.04],
  ["SQDGISMMLGMSGWRGHASV", 0.659],
  ["HFGDGILLI", -1.21],
  ["IKCPRLK", -0.466],
  ["NMYNVRLFVPHFSLECLTWY", 2.87],
  ["RYGAESELTPRSASHGYWKF", -0.313],
  ["CVSLCVHKDMIVIAPGTLTQ", 4.81],
  ["EWVLFDAHAGRLVVPEH", -0.995],
  ["ILLGYGQSMSRHIPTDKNEL", -0.79],
  ["QRIFTRLIYIRYAIPKFRTK", -0.399],
  ["FFRIACL", -0.704],
  ["ELFAFCMVPYYTRNMLWLVG", 0.584],
  ["GAFRVVSQHRASDVS", -0.116],
  ["WGSCISFRNRGMCLILDSVC", 0.037],
  ["GEYRDGFSLRVMGLHGSLNH", 1.07],
  ["ITCSHPQRMLVCSCKSPWCF", 3.31],
  ["KVFRLILGGVSNKYT", 0.228],
  ["ILLVSNEEISLCYCVYLGWM", 5.73],
  ["FTFYYCIRY", 0.673],
  ["WGAHCGWQF", -0.749],
  ["FIIISACSWLLSNWKTSGST", 6.97]
]}
